Values of IC50 for Procathepsin L (Rattus norvegicus), collected from a number of published sources:

>  <compound>
O=C(N[C@@H](Cc1ccc2ccccc2c1)C(=O)N[C@@H]1C(=O)N[C@H]1Oc1ccccc1)OCc1ccccc1

>  <limitOperator>
=

>  <IC50 / µM>
0.015

$$$$
>  <compound>
CC(C)(C)C[C@H](NC(=O)CCc1ccccc1)C(=O)N[C@@H]1C(=O)N[C@H]1Oc1ccccc1

>  <limitOperator>
=

>  <IC50 / µM>
11.4

$$$$
>  <compound>
O=C(N[C@@H](Cc1ccccc1)C(=O)N[C@@H]1C(=O)N2CC[S+]([O-])[C@@H]12)OCc1ccccc1 (some centres unmarked)

>  <limitOperator>
=

>  <IC50 / µM>
0.068

$$$$
>  <compound>
COc1ccc(C[C@H](NC(=O)CCc2ccccc2)C(=O)N[C@@H]2C(=O)N[C@H]2Oc2ccccc2)cc1OC

>  <limitOperator>
=

>  <IC50 / µM>
1.6

$$$$
>  <compound>
CC(=O)O[C@@H]1NC(=O)[C@H]1NC(=O)C(NC(=O)OCc1ccccc1)c1ccccc1 (mixture of isomers)

>  <limitOperator>
=

>  <IC50 / µM>
43.1

$$$$
>  <compound>
CC(=O)O[C@@H]1NC(=O)[C@H]1NC(=O)[C@H](Cc1ccc2ccccc2c1)NC(=O)NCc1ccccc1

>  <limitOperator>
=

>  <IC50 / µM>
0.01

$$$$
>  <compound>
CC(=O)O[C@@H]1NC(=O)[C@H]1NC(=O)[C@H](Cc1cccc(F)c1)NC(=O)OCc1ccccc1

>  <limitOperator>
=

>  <IC50 / µM>
0.341

$$$$
>  <compound>
O=C(CCc1ccccc1)N[C@@H](Cc1cccc(F)c1)C(=O)N[C@@H]1C(=O)N2CCS(=O)(=O)[C@@H]12

>  <limitOperator>
=

>  <IC50 / µM>
0.0033

$$$$
>  <compound>
CC(C)C[C@H](NC(=O)OCc1ccccc1)C(=O)NC1=CNC(CC(C)(C)C)NC1=O (some centres unmarked)

>  <limitOperator>
=

>  <IC50 / µM>
2.32

$$$$
>  <compound>
O=C(N[C@@H]1C(=O)N2CCO[C@H]12)OCc1ccccc1

>  <limitOperator>
>

>  <IC50 / µM>
50

$$$$
>  <compound>
O=C(N[C@@H](Cc1ccccc1)C(=O)N[C@@H]1C(=O)N2CC(O)CS[C@@H]12)OCc1ccccc1 (some centres unmarked)

>  <limitOperator>
=

>  <IC50 / µM>
2.19

$$$$
>  <compound>
CC1(C)[C@H](C(=O)O)N2C(=O)[C@@H](NC(=O)[C@H](Cc3ccccc3)NC(=O)CCc3ccccc3)[C@H]2S1(=O)=O

>  <limitOperator>
=

>  <IC50 / µM>
6.77

$$$$
>  <compound>
O=C(CCc1ccccc1)N[C@@H](Cc1cccs1)C(=O)N[C@@H]1C(=O)N2CCS[C@@H]12

>  <limitOperator>
=

>  <IC50 / µM>
11.6

$$$$
>  <compound>
CC(=O)O[C@@H]1NC(=O)[C@H]1NC(=O)[C@H](Cc1cccnc1)NC(=O)OCc1ccccc1

>  <limitOperator>
=

>  <IC50 / µM>
8.26

$$$$
>  <compound>
CC(C)(C)C[C@H](NC(=O)OCc1ccccc1)C(=O)N[C@@H]1C(=O)N[C@H]1Oc1ccccc1

>  <limitOperator>
=

>  <IC50 / µM>
2.3

$$$$
>  <compound>
CC(=O)O[C@@H]1NC(=O)[C@H]1NC(=O)[C@H](CCCNC(N)=O)NC(=O)CCc1ccccc1

>  <limitOperator>
=

>  <IC50 / µM>
11.5

$$$$
>  <compound>
CC(OC(C)(C)C)[C@H](NC(=O)OCc1ccccc1)C(=O)N[C@@H]1C(=O)N[C@@H]1Oc1ccccc1 (some centres unmarked)

>  <limitOperator>
=

>  <IC50 / µM>
10.7

$$$$
>  <compound>
CC(C)C[C@H](NC(=O)OCc1ccccc1)C(=O)NC1=CNC(c2ccco2)NC1=O (some centres unmarked)

>  <limitOperator>
=

>  <IC50 / µM>
1.5

$$$$
>  <compound>
O=C(CCc1ccccc1)N[C@@H](Cc1cccc(F)c1)C(=O)N[C@@H]1C(=O)N2CCS[C@@H]12

>  <limitOperator>
=

>  <IC50 / µM>
11.3

$$$$
>  <compound>
O=C(CCc1ccccc1)N[C@@H](Cc1cccs1)C(=O)N[C@@H]1C(=O)N2CCS(=O)(=O)[C@@H]12

>  <limitOperator>
=

>  <IC50 / µM>
0.003

$$$$
>  <compound>
O=C(CCc1ccccc1)N[C@@H](Cc1ccc2ccccc2c1)C(=O)N[C@@H]1C(=O)N2CCS(=O)(=O)[C@@H]12

>  <limitOperator>
=

>  <IC50 / µM>
0.003

$$$$
>  <compound>
O=C(CCc1ccccc1)N[C@@H](Cc1ccc2ccccc2c1)C(=O)N[C@@H]1C(=O)NC1OCc1ccccc1 (some centres unmarked)

>  <limitOperator>
=

>  <IC50 / µM>
0.0767

$$$$
>  <compound>
CC(C)C[C@H](NC(=O)OCc1ccccc1)C(=O)NC1=CNC(c2ccccc2F)NC1=O (some centres unmarked)

>  <limitOperator>
=

>  <IC50 / µM>
0.92

$$$$
>  <compound>
O=C(CCc1ccccc1)N[C@@H](Cc1ccc2ccccc2c1)C(=O)N[C@@H]1C(=O)NC1OC1CCCCC1 (some centres unmarked)

>  <limitOperator>
=

>  <IC50 / µM>
0.39

$$$$
>  <compound>
CC(C)C[C@H](NC(=O)OCc1ccccc1)C(=O)Nc1c[nH]c(=O)[nH]c1=O

>  <limitOperator>
>

>  <IC50 / µM>
50

$$$$
>  <compound>
O=C(CCc1ccccc1)N[C@@H](Cc1ccc2ccccc2c1)C(=O)N[C@@H]1C(=O)N2CCS[C@@H]12

>  <limitOperator>
=

>  <IC50 / µM>
0.43

$$$$
>  <compound>
CC[C@H](C)[C@H](NC(=O)OCc1ccccc1)C(=O)N[C@@H]1C(=O)N2CCO[C@H]12

>  <limitOperator>
=

>  <IC50 / µM>
9.88

$$$$
>  <compound>
CC(C)C[C@H](NC(=O)OCc1ccccc1)C(=O)NC1=CNC(c2ccccc2)NC1=O (some centres unmarked)

>  <limitOperator>
=

>  <IC50 / µM>
0.46

$$$$
>  <compound>
CC(C)(C)OC[C@H](NC(=O)OCc1ccccc1)C(=O)N[C@@H]1C(=O)N[C@@H]1Oc1ccccc1

>  <limitOperator>
=

>  <IC50 / µM>
2.19

$$$$
